Source of measurements: PubChem BioAssay (NCATS)

# Test name: qHTS of pediatric cancer cell lines to identify multiple opportunities for drug repurposing: Confirmatory screen for SK-N-SH cells (AID 1347129);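 also: cells exposed to compound for 48 h before viability read; nearly all actives have a fitted effect of over 60% in size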
# Condition notes: SK-N-SH neuroblastoma cell viability; series mostly up to 46.1 µM
Inconclusive results are not listed. Calls of active or inactive are those of the source. Calls follow the shape of the dose curve; as a rule, active = well fitted cell-killing curve with a large enough effect; inconclusive = small, poorly fitted or top-dose-only effect; inactive = flat fitted curve, though single readings scatter.
Your response should consist of one outcome taken from active, inactive

// below: answered compounds
COc1ccc2c(c1)c(C1=C(c3c[nH]c4ccccc34)C(=O)NC1=O)cn2CCCN(C)C | active
CCNC(=O)c1noc(-c2cc(C(C)C)c(O)cc2O)c1-c1ccc(CN2CCOCC2)cc1 | active
Cc1cnc(-c2cc(N3CCN(C(=O)CCS(C)(=O)=O)CC3)ncc2Cl)c(C)c1 | inactive
O=C(CC12CC3CC(CC(C3)C1)C2)Nc1cccc2nc(NCCNCCO)ccc12 | inactive
COC1CCC(C(=O)c2ccc3nc4c(cc3c2)CCCO4)CC1 (configuration not stated) | inactive

**Q:** Hi, sorry to bother you, what did the test record for CC1(COc2ccc3c(c2)ncn3-c2ccc3cccc(N4CCC(N)CC4)c3n2)COC1 ?
**A:** active

**Q:** Hi, sorry to bother you, what did the test record for Nc1[nH]nc2nnc(-c3c(-c4ccccc4)nn4ccccc34)cc12 ?
**A:** inactive

**Q:** Hi, sorry to bother you, what did the test record for CCOC(=O)[C@H](CCc1ccccc1)N[C@@H](C)C(=O)N1CCCC1C(=O)O (some centres not stated) ?
**A:** inactive

**Q:** Hi, sorry to bother you, what did the test record for COc1cc2nccc(Oc3ccc(NC(=O)Nc4cc(C)on4)c(Cl)c3)c2cc1OC ?
**A:** active

**Q:** Hi, sorry to bother you, what did the test record for CCC(=O)N1CCN(c2ccc(-n3c(=O)ccc4cnc5ccc(-c6cnc7ccccc7c6)cc5c43)cc2C(F)(F)F)CC1 ?
**A:** inactive

----------
# Test name: Quantitative High-Throughput drug screen in 47 multiple myeloma cell lines against the NCATS MIPE library collection: OPM1_PLB cell viability assay (AID 1918989); also: nearly all actives have a fitted effect of over 40% in size
# Condition notes: CellTiter-Glo, 48 h; series mostly up to 45.8 µM
Results filed as inconclusive are left out. The source made the active and inactive calls. Calls come from the whole dose curve; as a rule, active = well fitted cell-killing curve with a large enough effect; inconclusive = small, poorly fitted or top-dose-only effect, or effect the other way; inactive = no such curve, though single readings can be large or run the other way.
Your response should consist of one outcome taken from Yes (active), No (inactive)

O=C1CCCC(=O)C1C(=O)c1ccc(C(F)(F)F)cc1[N+](=O)[O-] | No
COc1cc(N2CCN(C)CC2)ccc1Nc1nc(N)c(C(=O)c2c(Cl)cccc2Cl)s1 | Yes
CN[C@@H](C)[C@H]1[C@H](O)C[C@@]2(C)[C@@H]3CC[C@H]4C(C)(C)[C@@H](NC)CC[C@@]45C[C@@]35CC[C@]12C | No

Turning now to a further record.
**Q:** Hi, sorry to bother you, what did the test record for CCN(CCO)CCCOc1ccc2c(Nc3cc(CC(=O)Nc4cccc(F)c4)[nH]n3)ncnc2c1 ?
**A:** No

----------
# Tested on: CP297
# Test name: qHTS profiling for inhibitors of Plasmodium falciparum proliferation (AID 504749);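 also: 0% = DMSO vehicle and full inhibition = artemisinin control; nearly all actives have a fitted effect of over 60% in size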
# Condition notes: P. falciparum in erythrocytes, SYBR Green DNA, 72 h; series mostly up to 28.7 µM
Results filed as inconclusive are left out. The source made the active and inactive calls. The call rests on the fitted dose curve; in most records, active means well fitted inhibition curve with a large enough effect; inconclusive means small, poorly fitted or top-dose-only effect; inactive means flat fitted curve, though single readings scatter.
Attribute measured: outcome

COc1ccnc(CS(=O)c2nc3ccc(OC(F)F)cc3[nH]2)c1OC (stereo not drawn) | inactive
Cc1cc2nc3c(=O)[nH]c(=O)nc-3n(CC(O)C(O)C(O)CO)c2cc1C (stereo not drawn) | inactive
CC(C)CN(C[C@@H](O)[C@H](Cc1ccccc1)NC(=O)O[C@H]1CO[C@H]2OCC[C@H]21)S(=O)(=O)c1ccc(N)cc1 | inactive

----------
# Test name: High-throughput drug toxicity screening in the BPDCN cell line Cal-1 (AID 1224825);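 also: cells exposed to compounds for 48 h; 100% = DMSO and 0% = bortezomib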
# Condition notes: Cal-1 BPDCN cell viability, qHTS; at 45.8 µM (top of the series) unless noted
Note to self: class = bucket of viability (% of control), per LOW (below 20%), MEDIUM (20% to below 70%), HIGH (70% or more)

C[C@@H](NC(=O)c1ncnc(N)c1Cl)c1ncc(C(=O)Nc2cc(C(F)(F)F)c(Cl)cn2)s1 | MEDIUM

**Q:** Hey, which category is C=CCc1cccc(C=NNC(=O)CN2CCN(Cc3ccccc3)CC2)c1O in, do you know?
**A:** LOW

**Q:** Hey, which category is CCN(CCO)CCCOc1ccc2c(Nc3cc(CC(=O)Nc4cccc(F)c4)[nH]n3)ncnc2c1 in, do you know?
**A:** LOW

**Q:** Hey, which category is CCC(=C(CC)c1ccc(O)cc1)c1ccc(O)cc1 in, do you know?
**A:** MEDIUM

**Q:** Hey, which category is CCOC(=O)[C@H]1O[C@H]1C(=O)N[C@@H](CC(C)C)C(=O)NCCC(C)C in, do you know?
**A:** HIGH

**Q:** Hey, which category is O[C@@H](COc1cccc2ncccc12)CN1CCN(C2c3ccccc3[C@@H]3[C@H](c4ccccc42)C3(F)F)CC1 (stereo partly drawn) in, do you know?
**A:** LOW

**Q:** Hey, which category is Cc1ccc2c(c1)c1c(n2CCc2ccc(C)nc2)CCN(C)C1 in, do you know?
**A:** HIGH

**Q:** Hey, which category is O=c1[nH]c(=O)n([C@H]2C[C@@H](O)[C@@H](CO)O2)cc1C(F)(F)F in, do you know?
**A:** LOW

**Q:** Hey, which category is CCCCC[C@H](O)C=C[C@H]1[C@H](O)CC(=O)[C@H]1CC=CCCCC(=O)O in, do you know?
**A:** MEDIUM

**Q:** Hey, which category is CCOc1ccccc1N=Nc1c(C)[nH]n(-c2nc(-c3ccccc3)cs2)c1=O in, do you know?
**A:** MEDIUM

----------
# Test name: qHTS of pediatric cancer cell lines to identify multiple opportunities for drug repurposing: Primary screen for control Hh wild type fibroblast cells (AID 1347106); also: nearly all actives have a fitted effect of over 55% in size
# Condition notes: Hh wild-type fibroblast viability, CellTiter-Glo luminescence, 48 h; series mostly up to 46 µM
Inconclusive results are not listed. Calls of active or inactive are those of the source. Calls follow the shape of the dose curve; as a rule, active = well fitted cell-killing curve with a large enough effect; inconclusive = small, poorly fitted or top-dose-only effect; inactive = flat fitted curve, though single readings scatter.
Your response should consist of one outcome taken from active, inactive

// below: answered molecules
CNC(=O)[C@H](CC1=CN=C2C=CCC=C12)NC(=O)[C@@H](CC(=O)NO)CC(C)C | inactive
COc1cc([C@@H]2c3cc4c(cc3[C@@H](O[C@@H]3O[C@@H]5CO[C@@H](C)O[C@@H]5[C@H](O)[C@@H]3O)[C@H]3COC(=O)[C@H]23)OCO4)cc(OC)c1O | inactive
O=C(c1ccc(F)c(F)c1Nc1ccc(I)cc1F)N1CC(O)([C@H]2CCCCN2)C1 | active

Turning now to a further record.
**Q:** Hi, sorry to bother you, what did the test record for CC(NCCc1ccc(O)cc1)C(O)c1ccc(O)cc1 (centres undefined) ?
**A:** inactive

----------
# Test name: Drug repurposing screens with cells derived from glioblastoma tumor samples (AID 1345199); also: % is scaled to controls: 0 for no effect and ±100 for the full control effect; nearly all actives have a fitted effect of over 40% in size
# Condition notes: GBM patient neurospheres viability, ATP luminescence, 48 h; at 45.9 µM (top of the series); tumour line B
Inconclusive results are not listed.
Attribute measured: activity, negative = cell killing (%)
# output: bare number, implied unit %

// below: answered compounds
CC(C)(CO)[C@@H](O)C(=O)NCCC(=O)O | 1.18
N#CC(c1ccc(Cl)cc1)c1c(Cl)cc(-n2ncc(=O)[nH]c2=O)cc1Cl (centres undefined) | -18.3
CC(C)CN(C[C@@H](O)[C@H](Cc1ccccc1)NC(=O)O[C@H]1CO[C@H]2OCC[C@H]21)S(=O)(=O)c1ccc(N)cc1 | -11.9

# context switch: different compound, same activity, negative = cell killing
**Q:** Return reported activity, negative = cell killing. Input compound: CCCCCCCCCCCCCCCC(=O)O[C@H]1[C@@H](O)[C@@H](O)[C@@H]([C@H](NC(=O)[C@@H]2C[C@@H](CCC)CN2C)[C@H](C)Cl)O[C@@H]1SC
**A:** -20

----------
# Test name: High-throughput drug toxicity screening in the BPDCN cell line Gen2.2 (AID 1224824);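 also: cells exposed to compounds for 48 h before reading; 100% = DMSO and 0% = bortezomib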
# Condition notes: Gen2.2 BPDCN cells; at 45.8 µM (top of the series) unless noted
Attribute measured: cell viability, % of control (lower = more cytotoxic) (%)
# output: bare number, implied unit %

// below: answered compounds
O=C1CN2Cc3c(ccc(Cl)c3Cl)N=C2N1 | 198
Cc1cc(C(C)Nc2ccccc2)c2nc(N3CCOCC3)cc(=O)n2c1 (centres undefined) | 47.8
CN(C)c1ccc(-c2nc3ncc(Cl)c(N4CCN(CC(=O)Nc5nccs5)CC4)c3[nH]2)cc1 | 3.51

**Q:** Return reported cell viability, % of control (lower = more cytotoxic). Input compound: O=C1CCCC(=O)C1C(=O)c1ccc(C(F)(F)F)cc1[N+](=O)[O-]
**A:** 124

**Q:** Return reported cell viability, % of control (lower = more cytotoxic). Input compound: CN(C)c1nc(Cc2ccc(NC(=O)c3ccc(C(F)(F)F)cc3)cc2)nc(N(C)C)c1CC(=O)O
**A:** 204

**Q:** Return reported cell viability, % of control (lower = more cytotoxic). Input compound: O=C(Nc1ncc(SCCN2CCCC2)s1)[C@]1(c2ccc(S(=O)(=O)C3CC3)cc2)C[C@@H]1C1CCCCC1
**A:** 116
